Data provenance: PubChem BioAssay

Listing: inhibition of selected compounds
# test_method_notes: inhibitors of E-selectin induction by TNFa, primary screen, imaging, HUVEC, immunofluorescence, MLSMR starter and 10KST1 sets (AID 487);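 note: signal is fraction of cell area covered by stained E-selectin grains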
# stated_conditions: HUVEC TNFalpha-induced E-selectin immunofluorescence imaging, at 2 µM; hits give high values
measured_endpoint: inhibition (%)

INSERT INTO assay_data (compound, assay_value) VALUES
  ('N#Cc1ccc(-c2ccc(OCC(O)Cn3nnc4ccccc43)cc2)cc1 (stereo unspecified)', -19.3),
  ('CCCc1cc(=O)[nH]c(SCc2ccccc2)n1', -110),
  ('CNC(=O)CSc1nnc(-c2ccc(S(=O)(=O)N3CCCC3)cc2)n1-c1cccc(C)c1C', -87.7),
  ('Cc1cn2c(-c3ccc(Cl)cc3)nnc2s1', -81),
  ('CCCc1ccc(S(=O)(=O)NCCc2ccncc2)cc1', -94.2),
  ('C=C(Cl)COC(=O)[C@H]1C2C=CC(C2)C1C(=O)O (stereo partly specified)', -29.7),
  ('COc1ccc(C2C3=C(CCCC3=O)Nc3nc(SCc4ccccc4)nn32)cc1OC (stereo unspecified)', 32.2),
  ('COc1cc2c(N3CCOCC3)cc(O)c(CC(=O)Nc3ccccc3)c2cc1OC', -63.7),
  ('c1ccc2ncc(-n3cnnn3)cc2c1', -118),
  ('COc1ccc(-c2ccc(-c3noc(-c4ccccc4OC)n3)c(OC)n2)cc1', -1.9),
  ('COc1ccc(NC(=O)C(C)NS(=O)(=O)c2ccccc2)cc1Cl (stereo unspecified)', -51.4);
